- system-name: T1, SOCS-3 (recombinant, His-tagged) (mouse, UniProt O35718)
- T1 chain: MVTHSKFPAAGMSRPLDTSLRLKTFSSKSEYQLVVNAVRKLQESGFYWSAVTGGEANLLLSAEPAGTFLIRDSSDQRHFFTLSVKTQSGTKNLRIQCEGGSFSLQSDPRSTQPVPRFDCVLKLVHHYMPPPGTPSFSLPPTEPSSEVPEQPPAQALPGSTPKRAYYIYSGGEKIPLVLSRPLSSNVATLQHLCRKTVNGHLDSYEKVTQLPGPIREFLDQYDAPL
- assay-remarks: competition, SPR
Square brackets hold non-standard residues; d marks the D form. pY = N[C@@H](Cc1ccc(OP(=O)(O)O)cc1)C(=O)O
readout-type: IC50 (nM)
Give bare numbers, in nM.

Ac-E[pY]STVVHSG-NH2 (SMILES CC(=O)N[C@@H](CCC(=O)O)C(=O)N[C@@H](Cc1ccc(OP(=O)(O)O)cc1)C(=O)N[C@@H](CO)C(=O)N[C@H](C(=O)N[C@H](C(=O)N[C@H](C(=O)N[C@@H](Cc1c[nH]cn1)C(=O)N[C@@H](CO)C(=O)NCC(N)=O)C(C)C)C(C)C)[C@@H](C)O) [AcE(pY)STVVHSG]	970

Now for the binder whose IC50 we want.
So for Ac-AE[pY]STVVHSG-NH2 (SMILES CC(=O)N[C@@H](C)C(=O)N[C@@H](CCC(=O)O)C(=O)N[C@@H](Cc1ccc(OP(=O)(O)O)cc1)C(=O)N[C@@H](CO)C(=O)N[C@H](C(=O)N[C@H](C(=O)N[C@H](C(=O)N[C@@H](Cc1c[nH]cn1)C(=O)N[C@@H](CO)C(=O)NCC(N)=O)C(C)C)C(C)C)[C@@H](C)O) [AcAE(pY)STVVHSG] , the logged IC50 turned out to be 580
